Value source: patent US7786141B2

Here, each record is paired with measured Emax data.
System: M4 muscarinic receptor (Homo sapiens)
Construct: expressed in transfected cells; host or cells: CHO (M4-CHO)
Procedure Text: Functional mobilization of intracellular calcium (FLIPR) in M4-CHO cells
Assay type: cell-based
Reported Conditions: Table 4; 100% efficacy is the maximum response obtained with the Carbachol control
Readout Name: Emax

INSERT INTO results (compound, readout_name, experimental_value) VALUES
  ('C#CCOC(=O)N1CC[C@H](CN2CCC3(CC2)CN(C(C)=O)c2cccc(C)c23)C1 [compound 573]', 'Emax', '25 to 100%'),
  ('CC(=O)N[C@@H]1CCC2(CCN(CC3CCCCC3)CC2)c2ccccc21 [compound 882]', 'Emax', '< 25%'),
  ('COc1cc2c(cc1OC)C1(CCN(C3CCCCCC3)CC1)C[C@@H]2NC(C)=O [compound 442]', 'Emax', '< 25%'),
  ('CCCOC(=O)N1CC[C@H](CN2CCC3(CC2)CN(C(C)=O)c2ccccc23)C1 [compound 518]', 'Emax', '< 25%'),
  ('Cc1noc(C)c1C(=O)N1CCC(N2CCC3(CC2)CN(C(=O)N(C)C)c2ccc(F)cc23)CC1 [compound 572]', 'Emax', '< 25%'),
  ('CCC(C)C(=O)N1CCC(N2CCC3(CC2)CN(C(C)=O)c2ccccc23)CC1 (stereo not shown) [compound 1000]', 'Emax', '25 to 100%'),
  ('CCOC(=O)N1CCC(N2CCC3(CC2)CN(c2cnccn2)c2ccc(F)cc23)CC1 [compound 752]', 'Emax', '25 to 100%'),
  ('CC(=O)NC1CCC2(CCN(CCC3CCCN(C(=O)C(C)(C)C)C3)CC2)c2ccccc21 (stereo not shown) [compound 828]', 'Emax', '< 25%'),
  ('COc1cc2c(cc1OC)C1(CCN(C3C4CC5CC(C4)CC3C5)CC1)C[C@@H]2NC(C)=O (stereo partly shown) [compound 546]', 'Emax', '25 to 100%'),
  ('CCOC(=O)N1CCC(N2CCC3(CC2)CN(c2ccc(OC)cc2)c2ccc(F)cc23)CC1 [compound 908]', 'Emax', '25 to 100%'),
  ('C#CCOC(=O)N1CC[C@@H](CN2CCC3(CC2)CN(C(=O)N(C)C)c2ccc(F)cc23)C1 [compound 775]', 'Emax', '25 to 100%'),
  ('CC(=O)N[C@H]1CCC2(CCN(CC3CC3)CC2)c2ccccc21 [compound 514]', 'Emax', '25 to 100%'),
  ('CCOC(=O)N1CCC(N2CCC3(CC2)CN(C2CCCC2=O)c2ccc(F)cc23)CC1 (stereo not shown) [compound 756]', 'Emax', '25 to 100%'),
  ('CC(=O)N[C@@H]1CCC2(CCN(CC3CC4C=CC3C4)CC2)c2ccccc21 (stereo partly shown) [compound 486]', 'Emax', '25 to 100%'),
  ('CC(=O)N1CC2(CCN(C[C@H]3CCN(c4cnccn4)C3)CC2)c2c(C)cccc21 [compound 860]', 'Emax', '25 to 100%'),
  ('CC(=O)NC1CCC2(CCN(CCC3CCN(C(=O)OCC(C)C)CC3)CC2)c2ccccc21 (stereo not shown) [compound 962]', 'Emax', '< 25%');

* * *

System: M4 muscarinic receptor (Homo sapiens, UniProt P08173)
Construct: expressed in transfected cells; host or cells: CHO (M4-CHO)
Sequence (P08173 whole entry): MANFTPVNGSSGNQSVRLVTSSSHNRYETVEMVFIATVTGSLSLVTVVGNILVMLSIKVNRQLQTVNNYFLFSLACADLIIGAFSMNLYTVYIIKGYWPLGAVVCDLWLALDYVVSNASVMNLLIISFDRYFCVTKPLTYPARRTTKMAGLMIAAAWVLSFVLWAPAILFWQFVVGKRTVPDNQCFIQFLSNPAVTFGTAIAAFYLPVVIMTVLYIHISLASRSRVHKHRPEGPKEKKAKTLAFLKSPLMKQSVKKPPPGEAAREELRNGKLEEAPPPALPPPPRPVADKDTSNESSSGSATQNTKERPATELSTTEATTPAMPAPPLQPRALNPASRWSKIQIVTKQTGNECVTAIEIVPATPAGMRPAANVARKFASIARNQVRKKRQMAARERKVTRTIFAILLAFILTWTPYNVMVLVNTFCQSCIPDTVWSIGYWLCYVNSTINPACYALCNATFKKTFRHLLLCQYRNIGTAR
Procedure Text: Functional mobilization of intracellular calcium (FLIPR) in M4-CHO cells
Format: cell-based
Reported Conditions: M4 receptor, calcium mobilization; read-out: M4 Efficacy
Procedure: Functional Mobilization of Intracellular Calcium to Determine Muscarinic Receptor Activity: […] Compounds are prepared at a 2× fold concentration in a 96-well plate (round bottom, Costar Corning cat# 3656), by reconstituting the pre-spotted compounds in bath 1 containing 1 mM probenecid. […] In both assay modes, the fluorescence is recorded for 60 sec (excitation wavelength is […] and emission wavelength 540 nm) using the FLIPR 3 instrument. […]
Here, each record is paired with measured Emax data.
Readout Name: Emax

INSERT INTO assay_data (compound, experimental_value) VALUES
  ('CCOC(=O)N1CCC(N2CCC3(CC2)CN(C(C)=O)c2ccc(-c4ccsc4)cc23)CC1 [compound 165]', '> 85%'),
  ('CCOC(=O)N1C2CCC1CC(N1CCC3(CC1)CN(C(=O)Oc1ccc(F)cc1)c1ccc(F)cc13)C2 (stereo not shown) [compound 298]', '65 to 85%'),
  ('CCCC1CCC(N2CCC3(CC2)CN(C(C)=O)c2ccc(F)cc23)CC1 (stereo not shown) [compound 131]', '> 85%'),
  ('CC(=O)N1CC2(CCN(C3CCN(C(=O)OC4CCC4)CC3)CC2)c2cc(F)ccc21 [compound 140]', '> 85%'),
  ('CCCCC(=O)N1CC2(CCN(C3CCN(C(=O)OCC)CC3)CC2)c2cc(F)ccc21 [compound 270]', '> 85%'),
  ('Clc1ccc2c(c1)C1(CCN([C@H]3C[C@@H]4CC[C@@H]3C4)CC1)CO2 [compound 1]', '> 85%'),
  ('CCOC(=O)N1CCC(N2CCC3(CC2)CN(C(=O)c2cc(C)oc2C)c2ccc(F)cc23)CC1 [compound 335]', '< 65%'),
  ('CCCOC(=O)N1CCCC(N2CCC3(CC2)CN(C(C)=O)c2ccc(F)cc23)CC1 (stereo not shown) [compound 266]', '< 65%'),
  ('CCOC(=O)N1C2CCC1CC(N1CCC3(CC1)CN(C(=O)C1CCC1)c1ccc(F)cc13)C2 (stereo not shown) [compound 179]', '65 to 85%'),
  ('Cc1ccc2c(c1)C1(CCN(C3CC4CCC3C4)CC1)CN2S(C)(=O)=O (stereo not shown) [compound 232]', '> 85%'),
  ('CCOC(=O)N1C2CCC1CC(N1CCC3(CC1)CN(C(=O)c1cc(C)nn1C(C)(C)C)c1ccc(F)cc13)C2 (stereo not shown) [compound 189]', '65 to 85%'),
  ('COCCOC(=O)N1CC2(CCN(C3CC4CCC(C3)N4C(=O)O[C@@H]3CCOC3)CC2)c2cc(F)ccc21 (stereo partly shown) [compound 304]', '< 65%'),
  ('CC(=O)N1CC2(CCN(CC3CCOC3)CC2)c2cc(F)ccc21 (stereo not shown) [compound 135]', '> 85%'),
  ('CCOC(=O)N1CCC(N2CCC3(CC2)CN(C(=O)c2ccccn2)c2ccc(F)cc23)CC1 [compound 331]', '< 65%'),
  ('CC(=O)NC1CC2(CCN(CC3CC4C=CC3C4)CC2)c2ccccc21 (stereo not shown) [compound 180]', '65 to 85%'),
  ('CC(=O)N1CC2(CCN(C3CCC(C(C)C)CC3)CC2)c2cc(F)ccc21 (stereo not shown) [compound 226]', '< 65%');
